Data origin: patent US5216124A

tested system: δ opioid receptors (Rattus norvegicus, UniProt P33533)
Sequence (P33533 whole entry): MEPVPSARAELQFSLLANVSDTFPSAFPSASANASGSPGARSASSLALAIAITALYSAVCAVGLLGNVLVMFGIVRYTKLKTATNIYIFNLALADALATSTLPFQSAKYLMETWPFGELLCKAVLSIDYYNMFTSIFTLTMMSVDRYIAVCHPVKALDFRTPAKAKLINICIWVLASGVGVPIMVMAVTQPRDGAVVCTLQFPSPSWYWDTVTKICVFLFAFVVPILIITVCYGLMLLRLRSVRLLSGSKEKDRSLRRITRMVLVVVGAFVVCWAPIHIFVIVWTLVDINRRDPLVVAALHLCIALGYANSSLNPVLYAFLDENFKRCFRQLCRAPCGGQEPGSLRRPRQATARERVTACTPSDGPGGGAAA
assay text: Opiate Binding Assay, displacement of 3[H]-DSLET
measurement parameters: ratio of mean IC50 μ to δ; above 1.0 = more specific for δ
Where a name gives a salt, the structure may show the parent alone. Positions of bridges follow the written chain, without caps; N, C: chain ends. Non-standard residues stand in square brackets, D forms with d. Residues, ends and D or L forms follow the SMILES beside them. Phe(4-F) = N[C@@H](Cc1ccc(F)cc1)C(=O)O; Dmt = Cc1cc(O)cc(C)c1C[C@H](N)C(=O)O; 2Thi = N[C@@H](Cc1cccs1)C(=O)O; dPen = CC(C)(S)[C@@H](N)C(=O)O
measurement type: Mean IC50 Value μ/δ Ratio
Give bare numbers.

Example entries and their recorded answers appear below.
query: Look up and state reported Mean IC50 Value μ/δ Ratio for Cc1cc(O)ccc1CC(N)C(=O)N[C@@H]1CSSC(C)(C)[C@H](C(=O)O)NC(=O)[C@H](Cc2ccccc2)NC1=O (single isomer, unassigned) [Example 5 (Diastereomer A)]
result: 48

query: Look up and state reported Mean IC50 Value μ/δ Ratio for COC(=O)[C@@H]1NC(=O)[C@H](Cc2ccc(F)cc2)NC(=O)[C@H](NC(=O)[C@@H](N)Cc2c(C)cc(O)cc2C)CSSC1(C)C [Example 67, monohydrochloride] (H-[Dmt][dC][Phe(4-F)][dPen]-OMe; disulfide 2-4)
result: 2.4

query: Look up and state reported Mean IC50 Value μ/δ Ratio for Cc1cc(O)ccc1CC(N)C(=O)N[C@@H]1CSSC(C)(C)[C@H](C(=O)O)NC(=O)[C@H](Cc2ccccc2)NC1=O (single isomer, unassigned) [Example 5 (Diastereomer B)]
result: 15

Turning to the following compound.
query: Look up and state reported Mean IC50 Value μ/δ Ratio for COC(=O)[C@@H]1NC(=O)[C@H](Cc2cccs2)NC(=O)[C@H](NC(=O)[C@@H](N)Cc2c(C)cc(O)cc2C)CSSC1(C)C [Example 60, monohydrochloride] (H-[Dmt][dC][2Thi][dPen]-OMe; disulfide 2-4)
result: 1.4

###

tested system: δ opioid receptors (Rattus norvegicus)
Positions of bridges follow the written chain, without caps; N, C: chain ends. Non-standard residues stand in square brackets, D forms with d. Residues, ends and D or L forms follow the SMILES beside them. Dmt = Cc1cc(O)cc(C)c1C[C@H](N)C(=O)O; dPen = CC(C)(S)[C@@H](N)C(=O)O
measurement type: IC50 (nM)
Answers are plain numbers, in nM.

query: Look up and state reported IC50 for Cc1cc(O)cc(C)c1C[C@H](N)C(=O)N[C@@H]1CSSC(C)(C)[C@H](C(=O)O)NC(=O)[C@H](Cc2ccccc2)NC1=O [Example 4] (H-[Dmt][dC]F[dPen]-OH; disulfide 2-4)
result: 0.4

###

For each entry below, report its Mean IC50 Value μ/δ Ratio value.
tested system: UniProt P33533
assay text: Opiate Binding Assay, displacement of 3[H]-DSLET
measurement parameters: ratio of mean IC50 μ to δ; above 1.0 = more specific for δ; monohydrochloride
Counter-ions that a name gives are not always drawn.
Numbers only.

Example entries and their recorded answers appear below.
query: Look up and state reported Mean IC50 Value μ/δ Ratio for COC(=O)[C@@H]1NC(=O)[C@H](Cc2ccccc2)NC(=O)C(NC(=O)[C@@H](N)Cc2c(C)cc(O)cc2C)CCSSC1(C)C (single isomer, unassigned) [Example 73, monohydrochloride]
result: 0.10

query: Look up and state reported Mean IC50 Value μ/δ Ratio for Cc1ccc(CC(N)C(=O)N[C@@H]2CSSC(C)(C)[C@H](C(=O)O)NC(=O)[C@H](Cc3ccccc3)NC2=O)c(C)c1O (single isomer, unassigned) [Example 81 (Diastereomer B), monohydrochloride]
result: 19

query: Look up and state reported Mean IC50 Value μ/δ Ratio for COC(=O)[C@@H]1NC(=O)[C@H](Cc2ccccc2)NC(=O)C(NC(=O)[C@@H](N)Cc2c(C)cc(O)cc2C)CCSSC1(C)C (single isomer, unassigned) [Example 72, monohydrochloride]
result: 0.4

Turning to the following molecule.
query: Look up and state reported Mean IC50 Value μ/δ Ratio for Cc1ccc(CC(N)C(=O)N[C@@H]2CSSC(C)(C)[C@H](C(=O)O)NC(=O)[C@H](Cc3ccccc3)NC2=O)c(C)c1O (single isomer, unassigned) [Example 81 (Diastereomer A), monohydrochloride]
result: 0.1
